Data credit: PubChem BioAssay (NCI)

Each entry below lists one item and its recorded growth inhibition value.
experiment: NCI Yeast Anticancer Drug Screen. Data for the bub3 strain (AID 167); conditions: S. cerevisiae bub3 mutant strain, at 50.0 µM, stronger effect = higher value
About 79,000 compounds went through this panel and 15% of them were active in at least one assay; those are over-represented in the sample as a whole.
Reported endpoint: growth inhibition (%)

Compound: CCC(CC)CNC(=O)C(C)Br (stereo not given)
Reported endpoint: growth inhibition
Result unit: %
Result value: 7.2

Compound: CN(C=O)NC(=O)N(CCCl)N=O
Reported endpoint: growth inhibition
Result unit: %
Result value: -9.1

Compound: CCCCC1CN1C(=N)OCC (stereo not given)
Reported endpoint: growth inhibition
Result unit: %
Result value: 0.9

Compound: N#CNc1nnnn1-c1ccccc1 (tested in a mixture with another compound)
Reported endpoint: growth inhibition
Result unit: %
Result value: 11.8

Compound: CN(C)P(N)(=S)N(C)C
Reported endpoint: growth inhibition
Result unit: %
Result value: -22.6

Compound: O=[N+]([O-])/C=C/c1ccc(Cl)cc1
Reported endpoint: growth inhibition
Result unit: %
Result value: 99.5

Compound: [Se]C1=NCCN1
Reported endpoint: growth inhibition
Result unit: %
Result value: 84

Compound: [Cl][Ni][Cl].[NH-]C1CCCCC1[NH-].[NH-]C1CCCCC1[NH-] (stereo not given)
Reported endpoint: growth inhibition
Result unit: %
Result value: 11.8

Compound: NC(=O)c1ccc(C(=O)Nc2ccc([As](=O)(O)O)cc2)cc1
Reported endpoint: growth inhibition
Result unit: %
Result value: -13.1

Compound: CCOP(=O)(OCC)/C(C#N)=C/c1cccc(F)c1
Reported endpoint: growth inhibition
Result unit: %
Result value: 51.1

Compound: O=NNc1c[nH]c(=O)[nH]c1=O
Reported endpoint: growth inhibition
Result unit: %
Result value: 0.3

Compound: Cn1c(=S)[nH]n(CCOc2ccccc2)c1=S
Reported endpoint: growth inhibition
Result unit: %
Result value: 3.45

Compound: COP(=O)(OC)/C(C#N)=C/c1ccco1
Reported endpoint: growth inhibition
Result unit: %
Result value: -42.6

Compound: O.[Co].[NH2-].[NH2-].[NH2-].[NH2-].[NH2-]
Reported endpoint: growth inhibition
Result unit: %
Result value: 24.2

Compound: O=C(CCl)NC1CCCCC1
Reported endpoint: growth inhibition
Result unit: %
Result value: 10.9

Compound: CC([NH-])C[NH-].CC([NH-])C[NH-].[Co].[NH2-].[NH2-] (stereo not given)
Reported endpoint: growth inhibition
Result unit: %
Result value: 35.2

Compound: CN1CN(c2ccccc2)C2(CCN(CC(C)(c3ccc(F)cc3)C3OCCCO3)CC2)C1=O (stereo not given)
Reported endpoint: growth inhibition
Result unit: %
Result value: -27.1

Compound: COC(=O)C1C(=O)CC2N(C)C1C(C)(C)C2(C)C (stereo not given)
Reported endpoint: growth inhibition
Result unit: %
Result value: 38.4

Compound: CC(=O)[O-].O=C([CH-]C(=O)c1ccccc1)c1ccccc1.O=C([CH-]C(=O)c1ccccc1)c1ccccc1.[Dy+3]
Reported endpoint: growth inhibition
Result unit: %
Result value: 92.1

Compound: COP(=O)(OC)OC1C(=O)NC(=O)NC1=O
Reported endpoint: growth inhibition
Result unit: %
Result value: 7.2

Compound: CO[C@H]1C=C[C@@]23c4cc5c(cc4CO[C@]2(O)CN(C)[C@H]3C1)OCO5
Reported endpoint: growth inhibition
Result unit: %
Result value: 1.8

Compound: O=C(O)[C@@H](Cl)[C@@H](Cl)C(=O)O
Reported endpoint: growth inhibition
Result unit: %
Result value: 9.55

Compound: O=NNc1ccc2ccccc2n1
Reported endpoint: growth inhibition
Result unit: %
Result value: 3.2

Compound: CN(C)C(=S)Nc1nnc(NC23CC4CC(CC(C4)C2)C3)s1
Reported endpoint: growth inhibition
Result unit: %
Result value: 93

Compound: CS/C([S-])=N/N=C(C)C.CS/C([S-])=N/N=C(C)C.[Pt+2]
Reported endpoint: growth inhibition
Result unit: %
Result value: -0.8

Compound: CC1(Br)Cc2ccccc2C1=O (stereo not given)
Reported endpoint: growth inhibition
Result unit: %
Result value: 70

Compound: CC1(CO)C(O)CCC2(C)C1CCC1CC3CC12CCC3(O)CO (stereo not given)
Reported endpoint: growth inhibition
Result unit: %
Result value: -10

Compound: Cc1cccc(-n2c(C)nc3ccccc3c2=O)c1C
Reported endpoint: growth inhibition
Result unit: %
Result value: -0.6

Compound: O=P(OCCCCl)(OCCCCl)C(Cl)(Cl)Cl
Reported endpoint: growth inhibition
Result unit: %
Result value: 13.7

Compound: CC1N=NNN1C (stereo not given)
Reported endpoint: growth inhibition
Result unit: %
Result value: 8.75

Compound: O=C(NC(CSC(c1ccccc1)(c1ccccc1)c1ccccc1)C(=O)O)OCc1ccccc1 (stereo not given)
Reported endpoint: growth inhibition
Result unit: %
Result value: 47.6

Compound: COc1ccccc1[As]=[As]c1ccccc1OC (stereo not given)
Reported endpoint: growth inhibition
Result unit: %
Result value: 99.3

Compound: CCCCC[N+]1=Cc2cc(O)c(O)cc2CC1
Reported endpoint: growth inhibition
Result unit: %
Result value: -12.4

Compound: N#C[S-].[La+3].c1cnc2c(c1)ccc1cccnc12.c1cnc2c(c1)ccc1cccnc12.c1cnc2c(c1)ccc1cccnc12
Reported endpoint: growth inhibition
Result unit: %
Result value: 92.1

Compound: CN1CC=C(OP(=O)(NCc2ccccc2)N(CCCl)CCCl)CC1 (stereo not given)
Reported endpoint: growth inhibition
Result unit: %
Result value: -17.4

Compound: CN(C)C(=O)c1cc(N(CCCl)CCCl)c([N+](=O)[O-])cc1[N+](=O)[O-]
Reported endpoint: growth inhibition
Result unit: %
Result value: -13.6

Compound: O=C1NC(=O)C(F)C(O)N1 (stereo not given)
Reported endpoint: growth inhibition
Result unit: %
Result value: 16.1

Compound: CC(=O)NNc1ccccc1
Reported endpoint: growth inhibition
Result unit: %
Result value: 87

Compound: O=C(O)C1CCCC(C(=O)O)[N-]1.O=C(O)C1CCCC(C(=O)O)[N-]1.[Cr+2] (stereo not given)
Reported endpoint: growth inhibition
Result unit: %
Result value: -2

Compound: COc1ccc(-c2c[se]c(=S)s2)cc1
Reported endpoint: growth inhibition
Result unit: %
Result value: 4.2

Compound: O=NNc1nc2ccccc2[nH]1
Reported endpoint: growth inhibition
Result unit: %
Result value: -6.95

Compound: Cc1cc(C)cc(C(O)(C(=O)O)c2ccccc2)c1 (stereo not given)
Reported endpoint: growth inhibition
Result unit: %
Result value: -5.9

Compound: CCN1CCC(O)(c2ccc(Cl)cc2)C(C(=O)c2ccc(Cl)cc2)C1 (stereo not given)
Reported endpoint: growth inhibition
Result unit: %
Result value: 98.5

Compound: COC(=O)C1(C(=O)OC)ON1C(C)(C)C (stereo not given)
Reported endpoint: growth inhibition
Result unit: %
Result value: -5

Compound: CN(C(=O)Oc1ccccc1)c1ccc(S(=O)(=O)F)cc1
Reported endpoint: growth inhibition
Result unit: %
Result value: 98.5
